Data provenance: patent US20200392161A1

# tgt: SHP2 (Homo sapiens)
# measurement notes: SHP2 allosteric inhibition assay (DiFMUP prompt fluorescence)
# Type: biochemical
# assay context: Table 5; 0.25 nM SHP2, 0.5 μM IRS1_pY1172(dPEG8)pY1222 peptide, DiFMUP 100 μM
pIC50: −log10 of the molar value. Where a name gives a salt, the structure may show the parent alone.
recorded endpoint: pIC50

Consider the following illustrative entries.
molecule="Clc1ccccc1-c1coc2ccnn12 [Compound E4, 3-(2-chlorophenyl)pyrazolo[5,1-b]oxazole]" tgt="SHP2 (Homo sapiens)" endpoint_result="< 4.00"
molecule=Cc1cc2occ(-c3ccccc3Cl)n2n1 tgt="SHP2 (Homo sapiens)" endpoint_result="< 4.00"
molecule="CC1(CN)CCN(c2cnn3c(-c4ccccc4Cl)coc23)C1 (stereo not shown) [Compound E2]" tgt="SHP2 (Homo sapiens)" endpoint_result="> 4.30"

Please turn your attention to the following entry.
Tell me pIC50 reported for CC1(N)CCN(c2cnn3c(-c4ccccc4Cl)coc23)CC1 [Compound E1, formate] 4.00 to 4.30

---

# tgt: UniProtKB Q06124
# Sequence (Q06124 1-593): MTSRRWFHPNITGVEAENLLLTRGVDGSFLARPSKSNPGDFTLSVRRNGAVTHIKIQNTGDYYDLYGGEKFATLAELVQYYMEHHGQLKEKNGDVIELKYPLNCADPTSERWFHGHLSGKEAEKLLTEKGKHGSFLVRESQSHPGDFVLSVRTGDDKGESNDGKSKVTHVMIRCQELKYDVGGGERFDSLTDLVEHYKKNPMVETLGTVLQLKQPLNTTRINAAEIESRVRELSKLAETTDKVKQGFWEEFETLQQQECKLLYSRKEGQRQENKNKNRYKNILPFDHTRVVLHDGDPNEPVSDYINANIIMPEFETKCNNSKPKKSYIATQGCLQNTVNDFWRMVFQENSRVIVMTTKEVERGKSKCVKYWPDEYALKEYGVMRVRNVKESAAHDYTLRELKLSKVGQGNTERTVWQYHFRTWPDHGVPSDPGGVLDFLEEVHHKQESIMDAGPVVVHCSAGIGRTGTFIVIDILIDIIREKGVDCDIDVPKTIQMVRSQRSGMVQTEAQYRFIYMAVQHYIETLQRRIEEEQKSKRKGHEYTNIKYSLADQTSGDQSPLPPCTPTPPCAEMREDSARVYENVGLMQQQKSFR
# measurement notes: SHP2 allosteric inhibition assay (DiFMUP prompt fluorescence)
# Format: biochemical
# assay context: Table 3; 0.25 nM SHP2, 0.5 μM IRS1_pY1172(dPEG8)pY1222 peptide, DiFMUP 100 μM
# Description: SHP2 Allosteric Inhibition Assay. SHP2 is allosterically activated through binding of bis-tyrosyl-phosphorylated peptides to its Src Homology 2 (SH2) domains. […] The catalytic activity of SHP2 was monitored using the surrogate substrate DiFMUP in a prompt fluorescence assay format. The inhibitor dose response curves were analyzed using normalized IC50 regression curve fitting with control based normalization.
recorded endpoint: IC50

Consider the following illustrative entries.
compound="COc1ccc(-c2nc(CSc3ncccn3)cs2)cc1OC [Compound C7]" endpoint_result="500 to 1000 µM"
compound="COc1cc(-c2nc(CSc3nncs3)cs2)ccc1O [Compound C4]" endpoint_result="< 500 µM"
compound="COc1ccc(-c2nc(CSc3nccn3C3CC3)cs2)cc1OC [Compound C12]" endpoint_result="< 500 µM"

Please turn your attention to the following entry.
Tell me IC50 reported for COc1ccc(-c2nc(CSc3nc4nc(C)cc(C)n4n3)cs2)cc1OC [Compound C32] > 1000 µM
